# System: MUSK
# Measurement Setup: concentration: 1 μM, replicates: in singlicate; n = 1;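 also: KINOMEscan kinase panel screen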
%Inh under 8% gets y, anything at or over 8% gets n.

Nc1ncnc2c1ncn2-c1cccc2ccccc12 [SKF-97184]; y

Then this compound:
[Q] Bench note: check whether COc1cc2ncn(-c3cc(OCCCc4ccccc4)c(C(N)=O)s3)c2cc1OC [GSK205189] shows %Inh below 8%
[A] n

----------
# Tested on: TAK1
# Construct: gene MAP3K7
# Measurement Setup: concentration: 1 μM, replicates: in singlicate; n = 1
Readout Label: %Inh (%)
Field format: number, assumed %, no unit text.

Below, each entry is followed by its recorded %Inh result.
O=C(Nc1n[nH]c2nc(-c3ccccc3)c(Br)cc12)C1CC1 [SB-708998]; 0
Cl.c1ccc(Cn2cnc3cc(Nc4ncnc5ccccc45)ccc32)cc1 [GW272142]; 0
Cc1c(Cn2c(C)nn3c(=O)cc(N4CCO[C@H](C)C4)nc23)cccc1C(F)(F)F [GSK2373690]; 0
Nc1ncnc2c1ncn2-c1cccc2ccccc12 [SKF-97184]; 3
COc1cc(OC)cc(-c2cc3cnc(N)nc3nc2NC(=O)NC(C)(C)C)c1; 42

Observed %Inh, TAK1, COc1cccc(-n2cnc3c(N)ncnc32)c1 [SKF-97416] : 23

Observed %Inh, TAK1, O=c1cc(N2CCOCC2)nc2n(Cc3ccc(F)c(Cl)c3)ccn12 [GSK2297099] : 2

Observed %Inh, TAK1, COc1cc(Nc2nccc(N3CCC(NC(=O)C4COc5ccccc5O4)C3)n2)cc(OC)c1OC (stereo not drawn) [GSK1379761] : 7

Observed %Inh, TAK1, COC(=O)c1c(-c2ccccc2)c2cc(C)ccc2c(=O)n1Cc1ccccc1 : 0

Observed %Inh, TAK1, C[C@@H]1CC[C@H](C(=O)NC2CCCCC2)CN1c1cc(-c2ccc3c(N)n[nH]c3c2)nc(N)n1 [GSK2291363] : 0

Observed %Inh, TAK1, COC(=O)c1c(-c2ccccc2)c2cc(Br)ccc2c(=O)n1Cc1ccc(NC(=O)CCC(=O)O)cc1 : 19

Observed %Inh, TAK1, COc1cc2nccc(Nc3ccc(OCc4ccc(NC(C)=O)cc4)cc3)c2cc1OC.Cl [GW440135] : 0

Observed %Inh, TAK1, Fc1cccc(CSc2nnc(-c3ccc4c(c3)CCO4)o2)c1 : 32

Observed %Inh, TAK1, CN1C(=O)C(Nc2cc(Cl)c(O)c(Cl)c2)=C(c2ccc(Cl)cc2)C1=O [SB-404321] : 0

Observed %Inh, TAK1, O=C1NC(=O)C(c2ccccc2)=C1Nc1cccc(O)c1 [SB-390534] : 0

Observed %Inh, TAK1, COc1cc2ncn(-c3cc(OCc4ccc(S(C)(=O)=O)cc4)c(C(N)=O)s3)c2cc1OC [GW869979] : 0

Observed %Inh, TAK1, COc1ccc(CNC(=O)NC2CCN(c3ccnc(Nc4ccc(F)cc4)n3)C2)cc1 (stereo not drawn) [GSK1379706] : 6

Observed %Inh, TAK1, Cc1cc(Nc2nc(-c3cccc(C)n3)nc3ccccc23)ccn1 [GW872411] : 0

Observed %Inh, TAK1, Nc1nc(-c2ccccc2F)c(-c2ccnc3ccccc23)s1 [GW560459] : 0

Observed %Inh, TAK1, O=C(NCc1cccs1)c1cc(C(=O)c2c(Cl)cccc2Cl)c[nH]1 [GW823670] : 0

Observed %Inh, TAK1, CCC(=O)c1c(-c2ccccc2)c2cc(Cl)ccc2c(=O)n1Cc1cc(S(C)(=O)=O)n(CC(N)=O)n1 : 0

----------
# Test system: WNK2
# Measurement Setup: concentration: 1 μM, replicates: in singlicate; n = 1
Below, each of the compounds is paired with its reported %Inh value.
Field format: number, assumed %, no unit text.

Below, each entry is followed by its recorded %Inh result.
COC(=O)c1c(-c2ccccc2)c2cc(Br)ccc2c(=O)n1Cc1ccc(S(C)(=O)=O)cc1; 13
Cc1cc(Nc2nc(-c3cccc(C)n3)nc3ccccc23)ccn1; 0
Nc1ncnc2c1ncn2-c1cccc2ccccc12; 0
COc1ccc(Nc2nccc(N3CCC(NS(=O)(=O)c4ccc(NC(C)=O)cc4)C3)n2)cc1 (stereo not shown); 38
COc1cccc(C2=C(N(C)c3ccccc3)C(=O)NC2=O)c1; 0

%Inh for COc1cc(Nc2nccc(N3CCC(NC(=O)C(C)c4ccc(Cl)cc4)C3)n2)cc(OC)c1OC (stereo not shown) is 0

%Inh for COC(=O)c1c(-c2ccccc2)c2cc(C)ccc2c(=O)n1Cc1ccccc1 is 0

----------
# System: FLT1
# Measurement Setup: concentration: 1 μM, replicates: in singlicate; n = 1
Readout Label: %Inh (%)
Field format: number, assumed %, no unit text.

COC(=O)c1c(-c2ccccc2)c2cc(C)ccc2c(=O)n1Cc1ccccc1; 0
COc1cc2ncn(-c3cc(OCc4ccc(S(C)(=O)=O)cc4)c(C(N)=O)s3)c2cc1OC; 0
O=C(Nc1n[nH]c2nc(-c3ccccc3)c(Br)cc12)C1CC1; 25

Observed %Inh, FLT1, Cc1nn2c(=O)cc(N3CCOCC3)nc2n1Cc1cccc(Cl)c1Cl : 27

Observed %Inh, FLT1, O=C(Nc1n[nH]c2nc(-c3ccccc3)c(Cl)cc12)C1CC1 : 9

Observed %Inh, FLT1, COc1cc2ncn(-c3cc(OCCCc4ccccc4)c(C(N)=O)s3)c2cc1OC : 23

Observed %Inh, FLT1, COc1ccc(-c2coc3ccc(-c4nnc(SCc5cccc(C#N)c5)o4)cc23)cc1 : 0

Observed %Inh, FLT1, CCn1c(-c2ccoc2)nc2cnccc21 : 9

Observed %Inh, FLT1, COc1cc(Nc2ccnc3ccc(C(F)(F)F)cc23)cc(OC)c1OC : 9

Observed %Inh, FLT1, COc1cc2ncn(-c3cc(OCc4ccncc4)c(C(N)=O)s3)c2cc1OC : 19

Observed %Inh, FLT1, Cc1cccc(-c2cc(-c3c[nH]nc3-c3ccccn3)ccn2)c1 : 13

----------
# System: RSK1(Kin.Dom.1-N-terminal)
# Construct: gene RPS6KA1
# Measurement Setup: concentration: 1 μM, replicates: in singlicate; n = 1
%Inh under 5% gets satisfied, anything at or over 5% gets not satisfied.

Sample answers from the record:
O=C1NC(=O)C(c2ccccc2)=C1Nc1cccc(O)c1; not satisfied
CC(C)(C)c1ccc(C(=O)Nc2cn3cc(-c4ccccc4)ccc3n2)cc1; satisfied
COC(=O)c1c(-c2ccccc2)c2cc(Br)ccc2c(=O)n1Cc1ccc(NC(=O)CCC(=O)O)cc1; satisfied
CN(C)c1cc(-c2ccc3c(N)n[nH]c3c2)nc(N)n1; not satisfied
Cc1c(Cn2c(C)nn3c(=O)cc(N4CCO[C@H](C)C4)nc23)cccc1C(F)(F)F; not satisfied

[Q] Bench note: check whether Cc1nnc(-c2ccc(C)c(-c3ccc(C(=O)O)cc3)c2)o1 shows %Inh below 5%
[A] satisfied

[Q] Bench note: check whether Nc1ncnc2c1ncn2-c1ccc(Cl)cc1 shows %Inh below 5%
[A] not satisfied

[Q] Bench note: check whether CCS(=O)(=O)c1ccc(OC)c(Nc2ncc(-c3ccc(F)cc3)o2)c1.Cl shows %Inh below 5%
[A] not satisfied

[Q] Bench note: check whether Cl.NS(=O)(=O)c1cccc(Nc2cc(-c3ccc(F)cc3)n[nH]2)c1 shows %Inh below 5%
[A] satisfied

[Q] Bench note: check whether Nc1nc(-c2ccccc2F)c(-c2ccnc3ccccc23)s1 shows %Inh below 5%
[A] satisfied

[Q] Bench note: check whether Cc1ccc(-c2ccc3c(ccc4sc5c(c43)NC[C@@H](C)N=C5N(C)C)n2)cn1 shows %Inh below 5%
[A] satisfied

[Q] Bench note: check whether FC(F)(F)c1ccc(-c2ncn(CCCN3CCOCC3)c2-c2ccncc2)cc1 shows %Inh below 5%
[A] not satisfied

[Q] Bench note: check whether CCC(=O)c1c(-c2ccccc2)c2cc(Cl)ccc2c(=O)n1Cc1cc(S(C)(=O)=O)n(CC(F)F)n1 shows %Inh below 5%
[A] satisfied

[Q] Bench note: check whether O=C(NCCNc1ccnc(Nc2ccc(F)cc2)n1)Nc1ccc2c(c1)OCO2 shows %Inh below 5%
[A] not satisfied

[Q] Bench note: check whether Nc1ncnc2c1ncn2-c1cccc2ccccc12 shows %Inh below 5%
[A] not satisfied

[Q] Bench note: check whether COc1ccc(-c2cc3c(C)nc(N)nc3n([C@H]3CC[C@H](OCCO)CC3)c2=O)cn1 shows %Inh below 5%
[A] satisfied

[Q] Bench note: check whether COc1cccc(-n2cnc3c(N)ncnc32)c1 shows %Inh below 5%
[A] not satisfied

[Q] Bench note: check whether COc1ccc(-c2cc3c(C)nc(N)nc3n([C@H]3CC[C@H](O)CC3)c2=O)cn1 shows %Inh below 5%
[A] not satisfied

[Q] Bench note: check whether COc1cc2ncn(-c3cc(OCc4ccncc4Br)c(C(N)=O)s3)c2cc1OC shows %Inh below 5%
[A] satisfied

[Q] Bench note: check whether Cc1cc(Nc2nc(-c3cccc(C)n3)nc3ccccc23)ccn1 shows %Inh below 5%
[A] not satisfied
